Target: AKT1 (Homo sapiens, UniProt P31749)
Sequence (P31749 whole entry): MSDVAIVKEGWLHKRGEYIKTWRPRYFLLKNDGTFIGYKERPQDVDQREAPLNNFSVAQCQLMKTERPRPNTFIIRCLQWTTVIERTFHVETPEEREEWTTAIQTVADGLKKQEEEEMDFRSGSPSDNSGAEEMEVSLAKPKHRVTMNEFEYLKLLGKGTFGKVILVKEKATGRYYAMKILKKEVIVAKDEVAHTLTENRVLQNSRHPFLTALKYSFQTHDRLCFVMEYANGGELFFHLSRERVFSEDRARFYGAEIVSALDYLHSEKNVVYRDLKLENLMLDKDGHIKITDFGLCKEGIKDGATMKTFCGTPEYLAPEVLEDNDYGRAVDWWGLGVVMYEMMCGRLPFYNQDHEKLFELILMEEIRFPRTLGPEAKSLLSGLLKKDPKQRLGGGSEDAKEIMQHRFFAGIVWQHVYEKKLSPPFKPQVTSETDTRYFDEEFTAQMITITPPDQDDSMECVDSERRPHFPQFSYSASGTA
Test: AKT Kinase Assay (IMAP fluorescent polarisation) vs AKT1
Conditions: activated AKT1, FAM Crosstide substrate
Where a name gives a salt, the structure may show the parent alone.
# IC50 annotations
readout-type: IC50

compound: NC1(c2ccc(-c3oc4ccn(CCF)c(=O)c4c3-c3ccccc3)cc2)CCC1 [Example 91]
endpoint-value: 1000 to 10000 nM
//
compound: NC1(c2ccc(-c3oc4nc(NCCO)nc(C(F)(F)F)c4c3-c3ccccc3)cc2)CCC1 [Example 73]
endpoint-value: 100 to 1000 nM
//
compound: Cn1c(N2CC[C@H](O)C2)nc2oc(-c3ccc(C4(N)CCC4)cc3)c(-c3ccccc3)c2c1=O [Example 56]
endpoint-value: 100 to 1000 nM
//
compound: NC1(c2ccc(-c3oc4c(=O)[nH]ccc4c3-c3ccccc3)cc2)CCC1 [Example 128]
endpoint-value: 100 to 1000 nM
//
compound: NC1(c2ccc(-c3oc4ncc(-c5ccccn5)nc4c3-c3ccccc3)cc2)CCC1 [Example 141]
endpoint-value: 1000 to 10000 nM
//
compound: COc1nc(N2CCCCC2)nc2oc(-c3ccc(C4(N)CCC4)cc3)c(-c3ccccc3)c12 [Example 47]
endpoint-value: 1000 to 10000 nM
//
compound: Cc1nc2oc(-c3ccc(C4(N)CCC4)cc3)c(-c3ccccc3)c2c(=O)n1CC(F)(F)F [Example 123]
endpoint-value: 100 to 1000 nM
//
compound: COc1nc(NCCN(C)C)nc2oc(-c3ccc(C4(N)CCC4)cc3)c(-c3ccccc3)c12 [Example 14]
endpoint-value: 100 to 1000 nM
//
compound: COc1nc(NCCCO)nc2oc(-c3ccc(C4(N)CCC4)cc3)c(-c3ccccc3)c12 [Example 41]
endpoint-value: ≤ 100 nM
//
compound: Cn1ccc2oc(-c3ccc(C4(N)CCC4)cc3)c(-c3ccccc3)c2c1=O [Example 4]
endpoint-value: 100 to 1000 nM
//
compound: Cn1c(C2CC2)nc2oc(-c3ccc(C4(N)CCC4)cc3)c(-c3ccccc3)c2c1=O [Example 90]
endpoint-value: 100 to 1000 nM
//
compound: CNc1ncc2c(-c3ccccc3)c(-c3ccc(C4(N)CCC4)cc3)oc2n1 [Example 55]
endpoint-value: ≤ 100 nM
//
compound: NC1(c2ccc(-c3oc4ccnc(-c5cn[nH]c5)c4c3-c3ccccc3)cc2)CCC1 [Example 133]
endpoint-value: 1000 to 10000 nM
//
compound: COc1nc(N2CC[C@H](O)C2)nc2oc(-c3ccc(C4(N)CCC4)cc3)c(-c3ccccc3)c12 [Example 35]
endpoint-value: 100 to 1000 nM
//
compound: C[C@@H](CO)Nc1nc2oc(-c3ccc(C4(N)CCC4)cc3)c(-c3ccccc3)c2c(=O)n1C [Example 98]
endpoint-value: 100 to 1000 nM
//
compound: NC1(c2ccc(-c3oc4ccccc4c(=O)c3-c3ccccc3)cc2)CCC1 [Example 29]
endpoint-value: 1000 to 10000 nM
//
compound: Cn1cc(-c2cn(C)c(=O)c3c(-c4ccccc4)c(-c4ccc(C5(N)CCC5)cc4)oc23)cn1 [Example 114]
endpoint-value: 100 to 1000 nM
//
compound: Cn1cc(C(=O)NCCO)c2oc(-c3ccc(C4(N)CCC4)cc3)c(-c3ccccc3)c2c1=O [Example 120]
endpoint-value: 100 to 1000 nM
//
compound: COc1nc(N2CCN(C(C)=O)CC2)nc2oc(-c3ccc(C4(N)CCC4)cc3)c(-c3ccccc3)c12 [Example 45]
endpoint-value: 100 to 1000 nM
//
compound: NC1(c2ccc(-c3oc4nc(NCCO)n(CC5CC5)c(=O)c4c3-c3ccccc3)cc2)CCC1 [Example 95]
endpoint-value: 1000 to 10000 nM
//
compound: NC1(c2ccc(-c3oc4cnccc4c3-c3ccccc3)cc2)CCC1 [Example 2]
endpoint-value: > 10000 nM
//
compound: CSc1nc2oc(-c3ccc(C4(N)CCC4)cc3)c(-c3ccccc3)c2c(=O)[nH]1 [Example 15]
endpoint-value: 100 to 1000 nM
//
compound: Cn1cc(-c2cn(CCF)c(=O)c3c(-c4ccccc4)c(-c4ccc(C5(N)CCC5)cc4)oc23)cn1 [Example 113]
endpoint-value: 100 to 1000 nM
//
compound: CSc1nc2oc(-c3ccc(C4(N)CCC4)cc3)c(-c3ccccc3)c2c(=O)n1CC(N)=O [Example 97]
endpoint-value: 100 to 1000 nM
//
compound: Cc1nc2oc(-c3ccc(C4(N)CCC4)cc3)c(-c3ccccc3)c2c(=O)n1C [Example 87]
endpoint-value: 100 to 1000 nM
//
compound: NC1(c2ccc(-c3sc4nc[nH]c(=O)c4c3-c3ccccc3)cc2)CCC1 [Example 16]
endpoint-value: 1000 to 10000 nM
//
compound: CN(CCO)c1nc2oc(-c3ccc(C4(N)CCC4)cc3)c(-c3ccccc3)c2c(=O)n1C [Example 84]
endpoint-value: 1000 to 10000 nM
//
compound: N#Cc1cccc2c(-c3ccccc3)c(-c3ccc(C4(N)CCC4)cc3)oc12 [Example 8]
endpoint-value: 1000 to 10000 nM
//
compound: NC1(c2ccc(-c3oc4ncncc4c3-c3ccccc3)cc2)CCC1 [Example 20]
endpoint-value: 1000 to 10000 nM
//
compound: COc1nccc2c(I)c(-c3ccc(C4(N)CCC4)cc3)oc12 [Example 127]
endpoint-value: > 10000 nM
//
compound: CCn1c(NC)nc2oc(-c3ccc(C4(N)CCC4)cc3)c(-c3ccccc3)c2c1=O [Example 92]
endpoint-value: 100 to 1000 nM
//
compound: CNc1nc2oc(-c3ccc(C4(N)CCC4)cc3)c(-c3ccccc3)c2c(=O)n1C [Example 65, hydrochloride]
endpoint-value: 100 to 1000 nM
//
compound: NC1(c2ccc(-c3oc4ncn(CC(F)(F)F)c(=O)c4c3-c3ccccc3)cc2)CCC1 [Example 106, HCl]
endpoint-value: 1000 to 10000 nM

----------
Target: AKT2 (Homo sapiens, UniProt P31751)
Sequence (P31751 whole entry): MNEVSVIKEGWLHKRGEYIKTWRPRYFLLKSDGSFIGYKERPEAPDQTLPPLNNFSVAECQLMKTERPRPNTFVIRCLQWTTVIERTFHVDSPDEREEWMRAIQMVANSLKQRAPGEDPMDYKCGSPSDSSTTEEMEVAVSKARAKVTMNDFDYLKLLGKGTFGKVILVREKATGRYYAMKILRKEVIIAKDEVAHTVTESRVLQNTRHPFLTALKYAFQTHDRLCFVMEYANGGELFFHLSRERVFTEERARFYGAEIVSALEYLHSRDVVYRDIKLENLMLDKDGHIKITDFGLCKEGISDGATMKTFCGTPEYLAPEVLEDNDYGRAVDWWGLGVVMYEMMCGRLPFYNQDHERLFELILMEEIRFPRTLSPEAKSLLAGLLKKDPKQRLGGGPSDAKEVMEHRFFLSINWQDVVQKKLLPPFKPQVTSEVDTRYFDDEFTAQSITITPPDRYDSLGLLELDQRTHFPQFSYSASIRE
Assay: AKT Kinase Assay (IMAP fluorescent polarisation) vs AKT2
Conditions: activated AKT2, FAM Crosstide substrate
Protocol: Testing of the compounds was performed using an AKT Kinase Assay: Activated AKT isoforms 1, 2 and 3 were assayed utilising a 5′ FAM Crosstide (Seq. GRPRTSSFAEG-OH). The extent of kinase phosphorylation was determined by fluorescent polarisation using IMAP progressive binding reagent, which introduces binding beads which allow the reagent to specifically bind to phosphate residues via covalent co-ordination complex bonds. […]
pIC50: −log10 of the molar value. Structures can show the parent of a compound that is named as a salt.
readout-type: pIC50

compound: Cn1c(N2CCCC2)nc2oc(-c3ccc(C4(N)CCC4)cc3)c(-c3ccccc3)c2c1=O [Example 58, hydrochloride]
endpoint-value: 6.00 to 7.00

compound: NC1(c2ccc(-c3oc4ccncc4c3-c3ccccc3)cc2)CCC1
endpoint-value: 5.00 to 6.00

compound: Cc1nc(NCCO)nc2oc(-c3ccc(C4(N)CCC4)cc3)c(-c3ccccc3)c12
endpoint-value: 6.00 to 7.00

compound: Cn1ccc2oc(-c3ccc(C4(N)CCC4)cc3)c(-c3ccccc3)c2c1=O
endpoint-value: 5.00 to 6.00

compound: NC1(c2ccc(-c3oc4ncc(-c5ccccn5)nc4c3-c3ccccc3)cc2)CCC1
endpoint-value: 5.00 to 6.00

----------
Biological target: AKT3 (Homo sapiens, UniProt Q9Y243)
Sequence (Q9Y243 whole entry): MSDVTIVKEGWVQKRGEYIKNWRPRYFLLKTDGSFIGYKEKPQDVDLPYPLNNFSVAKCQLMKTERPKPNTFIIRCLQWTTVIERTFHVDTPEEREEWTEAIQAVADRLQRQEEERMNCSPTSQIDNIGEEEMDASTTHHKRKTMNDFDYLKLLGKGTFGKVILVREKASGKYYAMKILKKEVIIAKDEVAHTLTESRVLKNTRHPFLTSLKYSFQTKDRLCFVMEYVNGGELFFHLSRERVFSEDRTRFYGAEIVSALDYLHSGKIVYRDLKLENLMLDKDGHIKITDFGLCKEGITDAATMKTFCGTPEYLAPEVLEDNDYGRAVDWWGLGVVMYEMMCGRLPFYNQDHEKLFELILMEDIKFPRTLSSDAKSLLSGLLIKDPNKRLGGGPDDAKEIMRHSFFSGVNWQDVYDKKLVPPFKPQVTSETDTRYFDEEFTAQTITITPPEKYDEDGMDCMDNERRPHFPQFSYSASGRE
Assay: AKT Kinase Assay (IMAP fluorescent polarisation) vs AKT3
Conditions: activated AKT3, FAM Crosstide substrate
Where a name gives a salt, the structure may show the parent alone.

compound: Cn1c(N2CC[C@H](O)C2)nc2oc(-c3ccc(C4(N)CCC4)cc3)c(-c3ccccc3)c2c1=O
IC50: 1 to 10 µM
--
compound: Cn1c(OCCO)nc2oc(-c3ccc(C4(N)CCC4)cc3)c(-c3ccccc3)c2c1=O [Example 85, HCl]
IC50: 1 to 10 µM
--
compound: NC(=O)c1cccc2c(-c3ccccc3)c(-c3ccc(C4(N)CCC4)cc3)oc12
IC50: > 10 µM
--
compound: CCOc1nc(N2CCNCC2)nc2oc(-c3ccc(C4(N)CCC4)cc3)c(-c3ccccc3)c12 [Example 46, HCl]
IC50: 0.1 to 1 µM
--
compound: Cn1ccc2c(-c3ccccc3)c(-c3ccc(C4(N)CCC4)cc3)oc2c1=O
IC50: 1 to 10 µM
--
compound: NC1(c2ccc(-c3oc4ncc(CO)nc4c3-c3ccccc3)cc2)CCC1
IC50: > 10 µM
--
compound: NC1(c2ccc(-c3oc4ncc(Br)cc4c3-c3ccccc3)cc2)CCC1
IC50: > 10 µM
--
compound: COc1nccc2oc(-c3ccc(C4(N)CCC4)cc3)c(-c3ccccc3)c12
IC50: > 10 µM
--
compound: COc1nc(N2CCC(N)CC2)nc2oc(-c3ccc(C4(N)CCC4)cc3)c(-c3ccccc3)c12
IC50: 1 to 10 µM
--
compound: N#Cc1cccc2c(-c3ccccc3)c(-c3ccc(C4(N)CCC4)cc3)oc12
IC50: > 10 µM
--
compound: COc1nc(N2CCNCC2)nc2oc(-c3ccc(C4(N)CCC4)cc3)c(-c3ccccc3)c12
IC50: 1 to 10 µM
--
compound: NC1(c2ccc(-c3oc4ncc(-c5cnn[nH]5)nc4c3-c3ccccc3)cc2)CCC1
IC50: > 10 µM
--
compound: COc1nc(N2CCN(CCN(C)C)CC2)nc2oc(-c3ccc(C4(N)CCC4)cc3)c(-c3ccccc3)c12
IC50: 1 to 10 µM
--
compound: Cn1cc(-c2cn(CCF)c(=O)c3c(-c4ccccc4)c(-c4ccc(C5(N)CCC5)cc4)oc23)cn1
IC50: 1 to 10 µM
--
compound: COc1nc(NCCO)nc2oc(-c3ccc(C4(N)CCC4)cc3)c(-c3ccccc3)c12
IC50: > 10 µM
--
compound: CCNc1nc(NCCO)nc2oc(-c3ccc(C4(N)CCC4)cc3)c(-c3ccccc3)c12 [Example 81, HCl]
IC50: > 10 µM
